Kindly supply the reported apparent KD of MS2 coat protein values for the records listed here.
- Test system: MS2 coat protein
- protocol-notes: apparent KD of MS2 coat protein, switch ON state; designed switch direction (-1 OFF switch, 1 ON switch): -1; higher = weaker reporter binding
- run-conditions: FMN input: 0 or 200 uM; Eterna round: R93 (includes R88 designs)
# number then unit; no other words

Reference set (6 entries):
AAAAAACAUGAGGAUCACCCAUGUAAGGAUAUGCAAAAGAAAAGAAAAGAAAGAAGAAGCAGAAGGUACAAGAA [Userkaf] | 35 nM
AGAUAGUCAGGAUAUACGAAAAUGUAAAAAGAAGUGAAGGGACAUGAGGAUCACCCAUGUAGAAGGGACUAGAA [74%, Web mod - With 5 less C's] | 100 nM
AUAAACGGAGGAUAUACAUGAGGAUCACCCAUGUAAAUAAAUAGGAGAGCCACAAUAAGUAGAAGGUCGAAUAA [JR_Exc003_Sub010] | 35.6 nM
AGGGUACAUGAGGAUCACCCAUGUUAGGAUAUACAAAAGAAAAGAAAAGAAAGAAGAAGUAGAAGGGACAAGAA [Teti] | 45.5 nM
AACAGUACAGGAUAUACAUGAGGAUCACCCAUGUGAGCAUUAAAAGGCGUACCUCAAAGUAGAAGGGUACUGGA [JL Maslow Revisted mod 23] | 107 nM
CUCGUGUUAGGAUAUGGAUAGCCGUUUGACGAGCGAGGGCACUAGAAGGAACAUGAGGAUCACCCAUGUAAAAA [Velema] | 29.4 nM

Count: 6. Required value per item: apparent KD of MS2 coat protein.
1. AAAAGUAGAGGAUAUACAUGAGGAUCACCCAUGUAGAAAGGAAGUGUAUAUAUGGCGUGUAGAAGGCUGCAUGA [Power strip]
2. AGAAAGUCAGGAUAUACGAAUAAGAAAAAAGACGAGAACGGACAUGAGGAUCACCCAUGUAGAAGGGACAAGAA [Diamond 15]
3. AGGCAGACAGGAUAUACUUGGGCAGCCAGUAUGGUAAUAUAACAUGAGGAUCACCCAUGUAGAAGGGUCAGAAA [JR_Exc002_Sub210]
4. AAAAAACAUGAGGAUCACCCAUGUGAGGAUAUCGGUAGUGAGGCCAUAGUGUCAGUAAUGAGAAGGCACAUAAA [Brourd 613 Mod 10 - Jieux - Exclusion 1]
5. GAAAAACAUGAGGAUCACCCAUGUCAGGAUAUCGAAAAAAAUAAAAAAGAAAAGAAAACGAGAAGGGACAAAAG [Mat - Same state - Mayanna Mod - D112]
6. AAAAGUGGAGGAUAUACAUGAGGAUCACCCAUGUGUAAAAAUAAAUACACAAAAGAAAGUAGAAGGCCACAAAA [Ex 3 May 10]

1: 29.3 nM; 2: 91.2 nM; 3: 94.3 nM; 4: 25.4 nM; 5: 31.6 nM; 6: 25.8 nM

Count: 6. Required value per item: apparent KD of MS2 coat protein.
1. AAAAAGUGAGGAUAUUCGGAUAGGAAAACGAAAACCUAUCCGAAGAAGGCACAUGAGGAUCACCCAUGUGGAAG [Mat - Exaclusion 4 - Eli mod - D47]
2. GCUUGUGAAGGAUAUACAUGAGGAUCACCCAUGUGAGAGAAAAAAGUGAGAAAGAAAAGUAGAAGGUCGUGAGG [salish99-ex3-79]
3. AACUGACAUGAGGAUCACCCAUGUCAGGAUAUGAUUUGACGAAAUAAAUAAAGUCAUAUCAGAAGGGACAUGGA [Design 80: Sub-opt U]
4. GAAACUGGAGGAUAUACGAACAUGUCAAAAGACGUGAAGGGACAUGAGGAUCACCCAUGUAGAAGGCUAGAAAG [Mat - Exclusion 2 - JL mod - D99]
5. UUUUGACAUGAGGAUCACCCAUGUCAGGAUAUAGUAAGAAAAAAAAAAAAAAAAACUACUAGAAGGGAUAUGGA [Amethyst 51]
6. AAAAAGUGAGGAUAUGUCAAAGGUCACGAAAGUGACAAAGGACAGAAGGCACAUGAGGAUCACCCAUGUGAAAA [Fiskers Exclusion 4D1 65% - Early + late G segment 2]

1. 37.2 nM
2. 36.1 nM
3. 25 nM
4. 74.9 nM
5. 24.5 nM
6. 26.7 nM

Count: 5. Required value per item: apparent KD of MS2 coat protein.
1. GAAAAUGGAGGAUAUACGUACAUGUCAAAAGACGUGAAGGGACAUGAGGAUCACCCAUGUAGAAGGCUAAAAAG [Mat - Exclusion 2 - JL mod - D96]
2. AAAAAACAUGAGGAUCACCCAUGUCAGGAUAUGCUCAGCAAUAUUAAAAUAAAGAACGGUAGAAGGGACAGAAA [Bilbo Confounded 23 - Jieux - Exclusion 1]
3. AUGUAGGUAGGAUAUGCAUAGAUACAGAUUCAUGUGGAACUACAUGAGGAUCACCCAUGUAGAAGGACCUAAAA [Mat - Same state - Mayanna Mod - D126]
4. ACUUAGACAGGAUAUACGUGAGUGGAAAAAGUGUUUCCACUACAUGAGGAUCACCCAUGUAGAAGGGUCUAAGA [Ex2 Design 181: Random 6B]
5. AAAAAACAUGAGGAUCACCCAUGUGAGGAUAUGCAAAACCCAAAUAAAAAGAGAAAAAGCAGAAGGCACAAAAA [wbt round 1 mod 2]

["101 nM", "35.8 nM", "20.2 nM", "48.8 nM", "23.5 nM"]

Count: 2. Required value per item: apparent KD of MS2 coat protein.
1. AAGAACCAAGGAUAUACAUGAGGAUCACCCAUGUAAAAGAAAGAGGGAAAAGAGAAAAGUAGAAGGUGGAAGAA [Ptolemy VI Philometor]
2. AUAUAACAUGAGGAUCACCCAUGUCAGGAUAUCGAACCCAACACAACCAAAAUGUCGGCGAGAAGGGACAAAAA [Default title]

1. 27.5 nM
2. 27.5 nM

* * *

- System: MS2 coat protein
- protocol-notes: apparent KD of MS2 coat protein; designed switch direction (-1 OFF switch, 1 ON switch): -1; higher = weaker reporter binding
- run-conditions: input ligand: FMN 200 uM
Kindly supply the reported apparent KD of MS2 coat protein values for the records listed here.
One number for each entry, in nM.

ACCAAUGCAGGAUAUACAUGAGGAUCACCCAUGUAUAACCUACAUAGAUGAUCAUCAUGUAGAAGGGCAAUGGA [EX3 229: Super Stable 29] (Eterna round: R96, puzzle: Exclusion 3) | 12.2
UUGAAUUAGCAGGAUAUGGGAGUCGAUAGACACCCAGAAGGGCUAACAUGAGGAUCACCCAUGUGUCCUAUCAA [Mod of Eli 22 - Jieux - Exclusion 6] (Eterna round: R97, puzzle: Exclusion 6) | 204
CCGCUCCGUGUAGGAUAUCGCUGUACCCUGCGGCGAGAAGGACAUGAGGAUCACCCAUGUAUGUUAUUAUCACGCGUGGCGCAC [Design 72] (Eterna round: R96, puzzle: Exclusion NG 1) | 16
CCUCUUGGGCAAGGAUAUCCUGCGCGGUUCCGGCUCGUGUCUGUCACAUGAGGAUCACCCAUGUGGGAGAAGGUGCCUGCGGUC [Design 79] (Eterna round: R96, puzzle: Exclusion NG 2) | 16.3

Count: 4. Required value per item: apparent KD of MS2 coat protein.
1. GAAAACGCUGAGGAUAUUUCUGAUCAAAGCAGCAAAGAAGGCAGCACAUGAGGAUCACCCAUGUGGUCUUCAAA [jl-ex6-4.03 ViennaUCT mod] (Eterna round: R97, puzzle: Exclusion 6)
2. GUCAGCUCGUGAGGAUAUGAACAUGAGGAUCACCCAUGUAAGAUCAAGCUGCUUCGGCAGCAAGUUCAGAAGGUACGAGCUGAC [ENG2/10-C1] (Eterna round: R96, puzzle: Exclusion NG 2)
3. AGACGUGCAGUGCUCCUCCACAUGAGGAUCACCCAUGUCACUGAGGAUAUCUGCAGGUAACUGCUGGAGAAGGCAGAAAGAAUG [Atrien] (Eterna round: R96, puzzle: Exclusion NG 3)
4. AGUUGGCGAGGAUAUACAUGAGGAUCACCCAUGUGAGAGAUACUAGUGAGGUCGAUGAGUAGAAGGCGCUGACA [Mat X3R4 m18] (Eterna round: R97, puzzle: Exclusion 3)

907
150
81.9
186

* * *

- Test system: MS2 coat protein
- protocol-notes: apparent KD of MS2 coat protein; designed switch direction (-1 OFF switch, 1 ON switch): -1; higher = weaker reporter binding
- run-conditions: input ligand: none
measurement-name: apparent KD of MS2 coat protein (nM)
Answers are plain numbers, in nM.

Reference set (2 entries):
AGUUGUGUCAAGGAUAUGCAGUCUAACGACGGAGCAGAAGGUGACACUUGAGGAUCACCCAAGUGAACCAAAAU [Bisoreis] (Eterna round: R97, puzzle: Exclusion 6) | 57.5
UUGAAGUCGUCAGGAUAUAGAUUUAAUGUCAUGCGUAUGUUCUUACAUGAGGAUCACCCAUGUCGCUAGAAGGGACUAUAGAUU [JR_ExcNG2_Sub008] (Eterna round: R96, puzzle: Exclusion NG 2) | 45.1

Count: 3. Required value per item: apparent KD of MS2 coat protein.
1. UUUGACUAAGGAUAUCCUUUUGACCACAUGAGGAUCACCCAUGUAUUCCACAAGUGCGAAGGAGAAGGUGGGAAGG [Eternabot (L2) Solution 28] (Eterna round: R97, puzzle: Exclusion 5)
2. GCAGCUAGUUCAGGAUAUCAGCACGAUUAGUGCUGAGAAGGGAACAUGAGGAUCACCCAUGUGAUCAAUGCUGCAAUUUUAAUU [ENG1/12-A1] (Eterna round: R96, puzzle: Exclusion NG 1)
3. CUAAGUUGGUAAGGAUAUCCUACAUUAUUCUGACCCGUGCAAGCUACAUGAGGAUCACCCAUGUGGGAGAAGGUGCGUUAAUGU [Design 5] (Eterna round: R96, puzzle: Exclusion NG 2)

[56.1, 597, 20.3]
